# studyTarget: T1, yedK E105A (Escherichia coli (gene from BL21 …, UniProt P76318 2-222, E105A))
# T1 sequence: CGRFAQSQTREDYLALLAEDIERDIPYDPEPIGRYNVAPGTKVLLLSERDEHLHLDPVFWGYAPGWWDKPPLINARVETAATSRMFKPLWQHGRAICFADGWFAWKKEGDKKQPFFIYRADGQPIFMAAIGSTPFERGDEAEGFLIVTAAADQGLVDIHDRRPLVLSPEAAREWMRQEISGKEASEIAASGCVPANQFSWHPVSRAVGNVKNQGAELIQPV
# assay: ITC
reportedEndpoint: pKd
Hey, just a heads up that pKd is the negative log base 10 of the concentration in molar.

(Q) I'd like to know its pKd. The binder in question is CGGTCGATTC (ssDNA) [ssDNA]
(A) 6.92
